For reference, the following log10 of IC50 results for MLK1 (Homo sapiens, UniProt P80192) were taken from various sources.
READOUT_NAME: log10 of IC50 (log10 of the value in nM)

COMPOUND | log10 of IC50
CC[C@H](C)OCc1ccc2c(c1)c1c3c(c4c(c1n2CCCO)Cc1ccccc1-4)C(=O)NC3 | 1.58
CCCCOC(C)c1ccc2c(c1)c1c3c(c4c(c1n2CCCO)Cc1ccccc1-4)C(=O)NC3 (stereo not shown) | 1.61
CCCCOCc1ccc2c(c1)c1c3c(c4c(c1n2CCCO)Cc1ccccc1-4)C(=O)NC3 | 1.41
CC(O)c1ccc2c(c1)c1c3c(c4c(c1n2CCCO)Cc1ccccc1-4)C(=O)NC3 (stereo not shown) | 1.70
CCSCc1ccc2c(c1)c1c3c(c4c(c1n2CCCO)Cc1ccccc1-4)C(=O)NC3 | 1.34
O=C1NCc2c1c1c(c3[nH]c4ccc(CO)cc4c23)Cc2ccccc2-1 | 1.48
O=C1NCc2c1c1c(c3c2c2cc(CO)ccc2n3CCCO)Cc2ccccc2-1 | 0.95
O=C1NCc2c1c1c(c3c2c2cc(CO)ccc2n3CCO)Cc2ccccc2-1 | 1.88
CCCSCc1ccc2c(c1)c1c3c(c4c(c1n2CCCOC(=O)C(F)(F)F)Cc1ccccc1-4)C(=O)NC3 | 1.23
O=c1[nH]nc(-c2cc3ccccc3o2)c2[nH]c3ccc(O)cc3c12 | 2.14
CC(=O)Nc1ccc(C(=O)Nc2sc(Nc3ccccc3)nc2C(N)=O)cc1 | 1.26
CC(C)OCc1ccc2c(c1)c1c3c(c4c(c1n2CCCO)C(CO)c1ccccc1-4)C(=O)NC3 (stereo not shown) | 1.32
CC(C)OCc1ccc2c(c1)c1c3c(c4c(c1n2CCCO)Cc1ccccc1-4)C(=O)NC3 | 1.23
CCOCc1ccc2c(c1)c1c3c(c4c(c1n2CCCO)Cc1ccccc1-4)C(=O)NC3 | 1.32
